# assayComment: label from the status in PepcDB records
valueKind: protein production

Check out these entries, answers already filled in.
chainSequence	protein production
MRMILMFDMPTETAEERKAYRKFRKFLLSEGFIMHQFSVYSKLLLNNTANNAMIGRLKVNNPKKGNITLLTVTEKQFARMVYLHGERNTSVANSDSRLVFLGDSYDQDLEHHHHHH	failed
MFIYGHMEKSERKNYLRESREVSYISLALLIISYIVISSIRFSFYLLSIMLIVSLLNFSIYFYMRYKIHARYHKNIDIQGYILEDNSWRYVLSLSVLLTIFIFLEYPFPFIRFYSFILIVNAFVITTWIVSLNGPIIGMLISRSDPLYEPFLYRAMELANAMNINVPDLYILDTRNRIANAFTVSRKESYVFITRLLMNILDVDEVTAVMAHEFAHIKLRHNLKTSIINFAVILFLINIALYGLTLDSFAGIMLPVISIIIYMFFTTFLLNYIKRRNEINADLTAIKYVNPDYLISALHKIENLEIFSRRISDIYLDHPSIDRRISIINRSRSS	failed
MLHYVHVGNKKSPNTLLFVHGSGCNLKIFGELEKYLEDYNCILLDLKGHGESKGQCPSTVYGYIDNVANFITNSEVTKHQKNITLIGYSMGGAIVLGVALKKLPNVRKVVSLSGGARFDKLDKDFMEKIYHNQLDNNYLLECIGGIDNPLSEKYFETLEKDPDIMINDLIACKLIDLVDNLKNIDIPVKAIVAKDELLTLVEYSEIIKKEVENSELKIFETGKHFLLVVNAKGVAEEIKNFI	not failed
MSLIILTRDDEPRIFTPDSDAASPALHSTSPLPDPASASPLHREEKILPKVCNIVSCLSFSLPASPTDSGLASPTIITREGQQFWAKCLIWKYQLYLHGLHKKSDGRRDKQISASPST	failed
MSVPDNVYLIGTMNTADRSLAGLDIALRRRFDFVEMAPRPDKLTGVKVAEIDISAVLETMNRRIEVLLDREHRLGHAYFMSLENSNDLSRLSNIFRQQIIPLLQEYFFEDWQRIAWILNDHRKDERFRFIVPAPYSVDSLFGDTGQVAQDSKAWRMNEEAFHKPLEHHHHHH	failed
MRNPFERMPTVLTADELIDKAFRRAEKAASSFKPRGNKVKKARLREELRVRTVSNVVRDNLRKVLERTPGLSTLPKFYQELVDVLVDRDTFHKAMAGIDWAIRIIRELEERYVERIRYSNDPNEIAELRRQFYGRVASVLRDIDDRLRYLNKAREVLKDLPVVDLEIPTVVIAGHPNVGKSTLLKALTTAKPEIASYPFTTRGINVGQFEDGYFRYQIIDTPGLLDRPISERNEIEKQAILALRYLGNLIIYIFDPSEHCGFPLEEQIHLFEEVHGEFKDLPFLVVINKIDVADEENIKRLEKFVKEKGLNPIKISALKGTGIDLVKEEIIKTLRPLAEKVAREKIERELRRYRSYL	not failed

Next:
Given MGSVSTGNAGSGTVGTSTTSRADVMTFQPSSLPVSYVGETYNVQVGVTGGVGPYGYRLTAGTLPPGLKFAGGALSGTPTKAGSYSFAIQATDANLSTRVQEYTMNVDALPPLALKPTLPPGEIRGETRIPVTIQAPRAVRAARLSWDLGKDVQVTRVQPADAGSVVFWQQRGSVLTVDLGFRTVPRPDARIALITVKPAKAVTLKADALGYEARDGSGKMLVDKKRPGSEPVKPAEQPGDPKVDPKAADQKATDQKATDPKTVDPKTVTPADTVEGGPLPSPALPTPSLPPTLPPVTTPPANTPPVPTPTPPANQPAPAPAPQPAPAPQPTPPSGTGGALEHHHHHH , respond with its protein production.
failed

---

# assayComment: label from the status in PepcDB records

chainSequence	protein production
MSALRTIGALTAREMLKFVRDRSRVLGALAQPLALWLLLGLGFQNTFQPPQGSVGGSYGAFLLPGILALVLLFTAIFSTISIVEERTSGFLQAVLVAPTPRTALVFGTTLGGTLLATVQALLFLGALPLIDLSPGVAGVGMIVAVCLLTGLAFTALGFAIAWRMETTRGFHAVMNLFLLPLWFLSGAMFPVDGAAPVLQVVMWGNPVSYAVSGLRHGFHGFAGTPAALAGPGVCLAVTGAFAVLMTGLAVWQVRRPFFQT	failed
MGQELLVRAHEPETADIEIIPVTTVVQVTEQNSTGDAAVALDTVTVVGERYVDDIVATLTTLRVGMAVLLQRESGNQYDDNAISVWTLQHAKLGYIARYQNQPYATLMDQGQRLYGIVTVLDQQKQHLELMLWRTTAVPSPIEALEHHHHHH	failed
MVGAIARWASLKIVMNPRQLTKTMNIQFLGNITTAILLAVVLQITLWPSAAQACTRILWNNNKLAVVVGRTMDWPESTEPELMVFPQGIKRNGGMLGDMLVVKDNPAQWTSKYGSVVTTVYGMGTVDGLNEKGLGMHMLYLTATDFGPRNPKKAGVQAGLWGQYLLDNAATVKEALALMNEIQPVMVALDDMKATVHLAIEDASGDSAILEYVEGKLVVHHGPEYRVMTNDPTYDQQLKFLETWDFTNATRQTPLPGNVDPKDRFVRASYYQMMLPEPKTEQEAIAGILAIARNTSVPFGAPNNIPGSLYNTEYRTAIDLTNRRYFFELTTSPNVIWVNLDQLNLAPGAPVLSLDPDNLDLSGNVTDKFTKVLKSPF	failed

---

# assayComment: label from the status in PepcDB records

chainSequence	protein production
MEFAPRSVVIEEFIDTLEPMMEAYGLDQVGIFEEHGEGNRYYVGYTINKDDEMITIHMPFVKNERGELALEKQEWTVRKDGREKKGFHSLQEAMEEVIHS	not failed
DDDEPGGKGAMYEVTIEQSGDFRSFIKSVVVVANGTQLKDGATGESLASPVILSDEELAVEKVTLSTTGKAIEFAVSGGVVDGEDGVVNEPMQWVVTVYKNGKEIEKKSLVFRDGKEISTDDLNLYYN	not failed

---

# assayComment: label from the status in PepcDB records
valueKind: protein production

Check out these entries, answers already filled in.
chainSequence	protein production
MAAAGEEYSSDKIEERSLAAIDSMIDPDISGPMRHIVVKAIHAAGDFAIAPLIRYSDGFFKSMLAKLKEGCTIICDSEMVRAGIYSRPVLERNRVVCYLNDVRSKEMADVNGITRSAAGIRIAMQDHRNSVIVIGNAPTALLEAMRMIEENGWYDIPIVGIPVGFINASKAKEGLVSSHIEYISVEGHRGGSPIAASIVNGFGRFLA	not failed
MGNPADQKDSKAKQKTEVFPVTIDDASNQDVTIKKEPKKIVSLMPSNTEITYALGLGDKVVGVTTNDTYPKEVKKVEKVGDMNVNVEKVISLKPDLVLAHESSMSASADAIKQLKDAGITVLTVNDAQSFSEVYKSIEMIGEAGGAEKKADQLVKSMKSDLKDIQEKAKTISKDEEKSVFIEVSPDPDIYTTGKDTFMNEMLNVIHAKNAAADQTGWVQMTDEAIVKLNPDAIVTTDGVKAKAVEKRDGWSEINAVKHHRVYDVDPDLVTRSGPRLIEGVEELAESIYPDTFKE	failed
MIDPLASPGSAPLIVIAGPTASGKSALALRVARRFNGVVINADSMQVYRDLRILSARPSVEDEAAAPHALYGVLDGAEVCSVGRWLALADGAVAAARAAGRLPILCGGTGLYLKAALEGLASVPEVAPEVRAEARELLAALGPAALHAKLAELDRAMAERLRPSDAQRIARAYEVVRGTGRSLMDWWSDPVATPALPGRPLLLVIDPPRAAQRAACDARLLAMVAAGALDELALLLARRLDPALPVMRAVGVPELARTLRGEVGLAEAVERAQGATRRYAKRQGTWIRTQLRPDRVLSESLVTQLSESQLTDIDNFLYAFLLTGAS	failed
MELWLVRHGETLWNREGRLLGWTDLPLTAEGEAQARRLKGALPSLPAFSSDLLRARRTAELAGFSPRLYPELREIHFGALEGALWETLDPRYKEALLRFQGFHPPGGESLSAFQERVFRFLEGLKAPAVLFTHGGVVRAVLRALGEDGLVPPGSAVAVDWPRRVLVRLALDGEEATG	not failed
MWIVLWPGLTGLPDSLVLLARVGGCSVLYDTGSGEPGSIVALAANLASAGVKPWSINVAIVSHAHVPSSGGARWLHDNHRVTIAARRPDSRWIEEGDPVKTAAVDYGLPTKPVPIGLELEREGRMPGECEGVEVLFTPGHTPGSVSVSLDTGDATVLAVSDALGRLKRDWGSSEREWMESLDKISSRDPDYLCTSVTCMDRRAAKAFLDEIREKGPVWDVENSSGDGPG	failed

Given MQDKNFDKLAQKFAKNIYGTPKGEIRAAVLWRDLAPALAQFGDKKLRILDAGGGFGYFSQKLARLGHEVVLCDISAEMLAQAKEQIDASDTPLAIRLVHAPIQALSITEHGMFDLILCHAVVEWLADAKTTMEGLLTMLKPNGLFSLMFYNKEAMRFHALVSGNFDYVAADLKVKKKVRLTPTHPLYIHEVKLWFAQWQMALLKESGVRVIHDYLKKQQAADFDYQKLLSMELEYSQREPYISLGRYVHFLGQSTATHSELEHHHHHH , respond with its protein production.
not failed

Given MGKLLFVDIGGTLLDYSNEVPRSAVDAIRKARAKGHRVYLSSGRSSAEVTSQLWDIGVDGLIGANGGYVESAQESVFHRRLSGEETRHIVEWLYNRGLEFYLESNNGLYASRGFREASKPVLSRLSEKTDVTVDSMYPDMFWGASLDRDDVNKISYIFNSQEDLDAAREAFPNLEHTTWGGQTGALFGTIGVSVNKKIGVDRLLKYLNADRANTIAFGDSDEDLSLFEASAYGVAMGEATESLKAAADLVTDAVGQDGLRNAFLKLELIDA , respond with its protein production.
failed

Given MLFIKPADLREIVTFPLFSDLVQCGFPSPAADYVEQRIDLNQLLIQHPSATYFVKASGDSMIDGGISDGDLLIVDSAITASHGDIVIAAVDGEFTVKKLQLRPTVQLIPMNSAYSPITISSEDTLDVFGVVIHVVKAMR , respond with its protein production.
failed

Given MFQTQFSPINFRETKIIKANYKRFHEIRAKVQTETNDALNENEISAIKKSGFRGHVDISYKSSASFSPLPLQQYFTTMKKIVMRKLRSPVSHCMLVTKCQTTLQIGYIDWMESKSLSNIID , respond with its protein production.
failed

Hello, the source for this data is a protein production outcome set (Wang et al. 2014), in case you need it.
